B1: CDC25A (parent)
chain: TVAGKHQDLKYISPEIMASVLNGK

# Variants of: B1
# assay-summary: protein stability index of a GFP-peptide fusion (GPS, HEK-293T) (PSI 1-6); higher = more stable;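 note: lentivirally expressed fusions sorted by FACS into six bins by GFP to DsRed ratio, PSI derived from sequencing read proportions per bin multiplied by bin number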
# assay-setup: c terminus: a fixed tail appended
Decide using protein stability index: a value greater than or equal to 3 is Satisfied, a smaller one is Not satisfied.

Check out these entries, answers already filled in.
A3G Satisfied
S19T Not satisfied
H6T Satisfied
N22S Satisfied
S13I Not satisfied
A3V Satisfied
I16L Not satisfied
G23F Not satisfied

Below: the item to evaluate.
Does protein stability index meet or surpass 3 for "S13C" ? Not satisfied
